measuredOn: T1, CRBN, Q96SW2
T1 chain: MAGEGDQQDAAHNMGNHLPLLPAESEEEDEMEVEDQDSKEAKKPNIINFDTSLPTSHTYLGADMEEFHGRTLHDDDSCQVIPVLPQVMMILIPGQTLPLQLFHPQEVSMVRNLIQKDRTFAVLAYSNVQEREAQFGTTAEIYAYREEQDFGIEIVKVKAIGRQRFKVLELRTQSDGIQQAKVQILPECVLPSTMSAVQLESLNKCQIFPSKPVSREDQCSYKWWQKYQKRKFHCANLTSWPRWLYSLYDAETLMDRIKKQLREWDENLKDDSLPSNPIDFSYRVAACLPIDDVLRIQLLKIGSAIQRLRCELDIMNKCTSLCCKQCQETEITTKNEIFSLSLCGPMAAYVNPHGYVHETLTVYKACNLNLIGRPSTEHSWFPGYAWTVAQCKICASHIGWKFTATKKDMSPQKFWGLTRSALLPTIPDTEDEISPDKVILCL
methodDescription: log2 fold change of degron read counts, EGFP-low vs EGFP+ sorted cells (limma voom), compound-induced degradation; higher = more compound-induced degradation of the degron-EGFP fusion; degrons are variants of IKZF1/3 zinc finger 2; compound dose not given here;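 note: pooled lentiviral library of zinc finger degron-EGFP fusions in mCherry-positive Jurkat cells, FACS-sorted after compound exposure, with degron abundance counted by next-generation sequencing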
measurementContext: Jurkat; 18 h; compound: compound 33 (diphenyl IMiD analogue)
In all, about 8,300 sequences were measured (“log2 fold change of degron read counts, EGFP-low vs EGFP+ sorted cells (limma voom), compound-induced degradation”: median about -1.1, highest 2% from about 3.2 on). For the sample, the highest values were picked, then their nearest neighbours and some sequences at random.
measuredQuantity: log2 fold change of degron read counts
Answers are plain numbers.

# sequenceString, log2 fold change of degron read counts
data = [
    ("FGCPICGATFTQKGNLLRHIKL [46F_47G_49P_50I_52G_53A_54T_55F_67L_, Q9UKT9]", 2.17),
    ("FQCPICGATFTQKGNLLRHIKL [46F_47Q_49P_50I_52G_53A_54T_55F_67L_, Q9UKT9]", 2.33),
    ("FACPICGATFTQKGNLLRHIKL [46F_47A_49P_50I_52G_53A_54T_55F_67L_, Q9UKT9]", 1.17),
]

# context switch: different sequence, same log2 fold change of degron read counts
-- ask Which log2 fold change of degron read counts reading was recorded for the sequence FICPICGATFTQKGNLLRHIKL [46F_47I_49P_50I_52G_53A_54T_55F_67L_, Q9UKT9] ?
-- reply 1.48

Ref: the supplement of paper PMC12645437
